Listing: IC50 of selected molecules
testSummary: Cytotoxicity against human HEK293 cells
Type: toxicity, cell-based
The reply should contain only the number, in µM.

Below are worked cases with known answers.
{"columns": ["cpdSmiles", "uom", "resultNumber"],
 "data": [
  ["C[C@@H]1CC[C@H]2[C@@H](C)C(=O)N(Cc3cn(-c4ccc(I)cc4)nn3)[C@@H]3O[C@@]4(C)CC[C@@H]1[C@@]23OO4", "µM", 12.4],
  ["C[C@@H]1CC[C@H]2[C@@H](C)C(=O)N(Cc3cn(-c4cccc(I)c4)nn3)[C@@H]3O[C@@]4(C)CC[C@@H]1[C@@]23OO4", "µM", 46.3]
]}

Let us examine a further case.
Give its IC50 value. Item: "Cc1c2ccncc2c(C)c2c1[nH]c1ccccc12"
6.3

----------
System: HepG2
testSummary: Antiproliferative activity against human HepG2 cells
Format: functional, cell-based
pIC50: −log10 of the molar value.
Mark criterion met for reported pIC50 of 4 or greater; mark criterion not met for anything smaller.

For orientation, consider the following solved cases.
{"columns": ["cpdSmiles", "studyTarget", "group"],
 "data": [
  ["C[C@@H]1CC[C@H]2[C@@H](C)C(=O)N(Cc3cn(-c4ccccc4I)nn3)[C@@H]3O[C@@]4(C)CC[C@@H]1[C@@]23OO4", "HepG2", "criterion met"],
  ["C[C@@H]1CC[C@H]2[C@@H](C)C(=O)N(Cc3cn(-c4ccc(I)cc4)nn3)[C@@H]3O[C@@]4(C)CC[C@@H]1[C@@]23OO4", "HepG2", "criterion met"],
  ["C[C@@H]1CC[C@H]2[C@@H](C)C(=O)N(Cc3cn(-c4cccc(Cl)c4)nn3)[C@@H]3O[C@@]4(C)CC[C@@H]1[C@@]23OO4", "HepG2", "criterion not met"],
  ["C[C@@H]1CC[C@H]2[C@@H](C)C(=O)N(Cc3cn(-c4ccc(Br)cc4)nn3)[C@@H]3O[C@@]4(C)CC[C@@H]1[C@@]23OO4", "HepG2", "criterion met"],
  ["C[C@@H]1CC[C@H]2[C@@H](C)C(=O)N(Cc3cn(-c4cccc(Br)c4)nn3)[C@@H]3O[C@@]4(C)CC[C@@H]1[C@@]23OO4", "HepG2", "criterion met"]
]}

For this compound, is measured pIC50 4 or higher? "C[C@@H]1CC[C@H]2[C@@H](C)C(=O)N(Cc3cn(-c4ccccc4Br)nn3)[C@@H]3O[C@@]4(C)CC[C@@H]1[C@@]23OO4"
criterion met

Please give the result for "C[C@@H]1CC[C@H]2[C@@H](C)C(=O)N(Cc3cn(-c4cccc(I)c4)nn3)[C@@H]3O[C@@]4(C)CC[C@@H]1[C@@]23OO4" too.
criterion met

Please give the result for "C[C@@H]1CC[C@H]2[C@@H](C)C(=O)N(Cc3cn(-c4cccc(F)c4)nn3)[C@@H]3O[C@@]4(C)CC[C@@H]1[C@@]23OO4" too.
criterion not met

Please give the result for "Cc1c2ccncc2c(C)c2c1[nH]c1ccccc12" too.
criterion met

----------
Listing: log10 IC50 of selected compounds
System: KB
testSummary: Antiproliferative activity against human KB cells
Type: functional, cell-based
Log10 applied to IC50; unit prior to transform: µM.

Give its log10 IC50 value. Item: "C[C@@H]1CC[C@H]2[C@@H](C)C(=O)N(Cc3cn(-c4cccc(Br)c4)nn3)[C@@H]3O[C@@]4(C)CC[C@@H]1[C@@]23OO4"
0.89

Please give the result for "C[C@@H]1CC[C@H]2[C@@H](C)C(=O)N(Cc3cn(-c4ccc(Br)cc4)nn3)[C@@H]3O[C@@]4(C)CC[C@@H]1[C@@]23OO4" too.
1.42

----------
testSummary: Selectivity ratio of IC50 for human HEK293 cells to IC50 for human A549 cells
Format: toxicity
conditionDescription: HEK293 cells versus A549 cells, read-out: Ratio IC50
measuredProperty: selectivity ratio
// response body must contain only the number

Give its selectivity ratio value. Item: "C[C@@H]1CC[C@H]2[C@@H](C)C(=O)N(Cc3cn(-c4cccc(Br)c4)nn3)[C@@H]3O[C@@]4(C)CC[C@@H]1[C@@]23OO4"
16

----------
Listing: selectivity ratio of selected molecules
testSummary: Selectivity ratio of IC50 for human HEK293 cells to IC50 for human HepG2 cells
Format: toxicity
conditionDescription: HEK293 cells versus HepG2 cells, read-out: Ratio IC50
// response body must contain only the number

{"columns": ["cpdSmiles", "resultNumber"],
 "data": [
  ["C[C@@H]1CC[C@H]2[C@@H](C)C(=O)N(Cc3cn(-c4cccc(Br)c4)nn3)[C@@H]3O[C@@]4(C)CC[C@@H]1[C@@]23OO4", 6]
]}

Give its selectivity ratio value. Item: "C[C@@H]1CC[C@H]2[C@@H](C)C(=O)N(Cc3cn(-c4cccc(I)c4)nn3)[C@@H]3O[C@@]4(C)CC[C@@H]1[C@@]23OO4"
5

----------
Test system: KB
testSummary: Antiproliferative activity against human KB cells
Format: functional, cell-based
Listing: pIC50 of selected compounds
Scale note: pIC50 = -log10(concentration in M).

{"columns": ["cpdSmiles", "pIC50"],
 "data": [
  ["Cc1c2ccncc2c(C)c2c1[nH]c1ccccc12", 5.77]
]}

KB / pIC50 / "C[C@@H]1CC[C@H]2[C@@H](C)C(=O)N(Cc3cn(-c4ccccc4Br)nn3)[C@@H]3O[C@@]4(C)CC[C@@H]1[C@@]23OO4" : value?
4.49

Please give the result for "C[C@@H]1CC[C@H]2[C@@H](C)C(=O)N(Cc3cn(-c4ccc(I)cc4)nn3)[C@@H]3O[C@@]4(C)CC[C@@H]1[C@@]23OO4" too.
4.99

----------
testSummary: Selectivity ratio of IC50 for human HEK293 cells to IC50 for human KB cells
Type: toxicity
conditionDescription: HEK293 cells versus KB cells, read-out: Ratio IC50
Listing: selectivity ratio of selected compounds
// response body must contain only the number

{"columns": ["cpdSmiles", "resultNumber"],
 "data": [
  ["C[C@@H]1CC[C@H]2[C@@H](C)C(=O)N(Cc3cn(-c4cccc(Br)c4)nn3)[C@@H]3O[C@@]4(C)CC[C@@H]1[C@@]23OO4", 32]
]}

Let us examine a further case.
Give its selectivity ratio value. Item: "C[C@@H]1CC[C@H]2[C@@H](C)C(=O)N(Cc3cn(-c4cccc(I)c4)nn3)[C@@H]3O[C@@]4(C)CC[C@@H]1[C@@]23OO4"
4

----------
Listing: IC50 of selected compounds
Test system: KB
testSummary: Antiproliferative activity against human KB cells
Assay type: functional, cell-based

Give its IC50 value. Item: "C[C@@H]1CC[C@H]2[C@@H](C)C(=O)N(Cc3cn(-c4cccc(F)c4)nn3)[C@@H]3O[C@@]4(C)CC[C@@H]1[C@@]23OO4"
> 280 µM

Please give the result for "C[C@@H]1CC[C@H]2[C@@H](C)C(=O)N(Cc3cn(-c4cccc(I)c4)nn3)[C@@H]3O[C@@]4(C)CC[C@@H]1[C@@]23OO4" too.
10.6 µM

Please give the result for "C[C@@H]1CC[C@H]2[C@@H](C)C(=O)N(Cc3cn(-c4cccc(Cl)c4)nn3)[C@@H]3O[C@@]4(C)CC[C@@H]1[C@@]23OO4" too.
235 µM

Please give the result for "C[C@@H]1CC[C@H]2[C@@H](C)C(=O)N(Cc3cn(-c4ccccc4I)nn3)[C@@H]3O[C@@]4(C)CC[C@@H]1[C@@]23OO4" too.
34.1 µM
